Numbers sourced from PubChem BioAssay.

Measured z-score by item
assay: DUSP6 inhibitors restoring Erk phosphorylation by chemical complementation, primary imaging in DUSP6-transfected HeLa (AID 609); details: HeLa MKP-3 transfected, phospho-Erk imaging KS statistic; measured here: cell density z-score; at 10 µM; cells stimulated with TPA for 15 min
Give the figure only, with no unit attached.

Solved cases (6 shown):
[
  {
    "COMPOUND": "COC(=O)c1c(C)noc1-c1cc(C)on1",
    "VAL": -1.72
  },
  {
    "COMPOUND": "CCC(=O)N[C@@H]1CC(C(C)(C)NC(=O)CC)CC=C1C (some centres undefined)",
    "VAL": -0.93
  },
  {
    "COMPOUND": "CCSc1nnc(NC(=O)C(CC)(C(F)(F)F)C(F)(F)F)s1",
    "VAL": 0.12
  },
  {
    "COMPOUND": "c1cncc(-c2nnc3sc(C4CCCCC4)nn23)c1",
    "VAL": 0.167
  },
  {
    "COMPOUND": "COc1cccc(-c2nc(NCCN3CCOCC3)c3ccccc3n2)c1O",
    "VAL": -0.211
  },
  {
    "COMPOUND": "Cc1ccc(C2/C(=C(\\O)c3cnn(-c4ccccc4)c3C)C(=O)C(=O)N2CCN(C)C)o1 (centres undefined)",
    "VAL": -0.998
  }
]

Which z-score is listed for CCc1nc2sc3c(c2c(=O)o1)CCCC3 ?
-0.371

Would you kindly share the measured z-score for O=C1NC2c3ccccc3C(=O)N2c2c1cnn2-c1ccccc1 (centres undefined) ?
0.407

State the recorded z-score for this entry: CC(=O)N1CCN(c2nc(CC(C)C)c3c(c2C#N)CCC3)CC1
-0.27

Returns the measured z-score for the input compound. Input: Cc1nc(SCC(N)=O)[nH]c(=O)c1Cc1ccc(OC(C)C)cc1
-0.515

For Cn1c(=O)n(Cc2ccccc2)c(=O)c2c1nc(NCC1CCCO1)n2Cc1ccccc1 (centres undefined) , what is its reported z-score?
-3.11

Tell me the measured z-score of CCN(CC)CCNC(=O)c1c(C)oc2cc(Br)c(OC)cc12 , please.
2.28

Field request: z-score | item: O=C(O)C1CSC(CCc2ccccc2)N1 (centres undefined)
-0.486

Consider the compound shown here: C[C@]12CCC(=O)C=C1CC[C@@H]1[C@@H]2C(=O)C[C@@]2(C)[C@H]1CC[C@]2(O)C(=O)CO What is its recorded z-score?
-0.503

Which z-score value is on record for Cc1[nH]nc2cn[nH]c12 ?
-0.515

For the compound CC(=O)Nc1cc2c(cc1Br)OCCO2 , what z-score is on record?
-0.0183

Fill blank: measured z-score of the compound CCSc1nnc(N(CCC#N)CCC#N)s1 is ____.
-0.814

Please look up its z-score: N#Cc1nc(-c2cccs2)oc1NCCN1CCOCC1
0.927

----------
target: Voltage-gated potassium channel subunit beta-2 (Rattus norvegicus) (UniProt P62483); assay: KvBeta positive modulators, primary screen, biochemical, NADPH fluorescence (AID 623); conditions: Recombinant KvBeta, NADPH fluorescence decrease slope, 10 min; at 10 µM; stronger effect = lower value;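 note: fluorescence intensity change per second fitted from 20 to 320 s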
Sequence (P62483 whole entry, looked up): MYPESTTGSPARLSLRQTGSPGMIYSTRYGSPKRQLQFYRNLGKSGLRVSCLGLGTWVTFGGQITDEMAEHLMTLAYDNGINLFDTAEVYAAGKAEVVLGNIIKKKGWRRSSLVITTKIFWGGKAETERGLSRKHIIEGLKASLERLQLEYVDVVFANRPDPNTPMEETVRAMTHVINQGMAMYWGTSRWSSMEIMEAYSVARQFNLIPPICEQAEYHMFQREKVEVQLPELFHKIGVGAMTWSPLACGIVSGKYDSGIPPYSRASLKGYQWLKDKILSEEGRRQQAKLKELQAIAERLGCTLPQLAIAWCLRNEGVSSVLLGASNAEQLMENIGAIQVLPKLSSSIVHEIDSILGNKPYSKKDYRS
The source made the active and inactive calls.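 Rule for the calls: active = NADPH fluorescence slope more negative than the mean of all samples by about 3 SD, 99.7% confidence; inactive = the rest.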
The entries below come with measured NADPH fluorescence slope values attached.

[
  {
    "COMPOUND": "N#C/C(C(=O)N1CCOCC1)=C1/SC(Cc2ccccc2)C(=O)N1c1ccccc1 (stereo unspecified)",
    "NADPH fluorescence slope": "-3.8e-05 (inactive)"
  },
  {
    "COMPOUND": "CSC(=Nc1ccccc1)C1=C(O)COC1=O",
    "NADPH fluorescence slope": "-8.2e-05 (inactive)"
  },
  {
    "COMPOUND": "Cc1noc(NS(=O)(=O)c2ccc(NC(=O)COc3ccccc3)cc2)c1C",
    "NADPH fluorescence slope": "-3.7e-05 (inactive)"
  },
  {
    "COMPOUND": "CCCc1cc(-n2ccnc2C)n2c(nc3ccccc32)c1C#N",
    "NADPH fluorescence slope": "-3.2e-05 (inactive)"
  },
  {
    "COMPOUND": "Cc1ccc(N(Cc2cc3ccccc3[nH]c2=O)C(=O)c2ccco2)c(C)c1",
    "NADPH fluorescence slope": "-0.000111 (inactive)"
  }
]

# get_value(readout='NADPH fluorescence slope', item= CCc1cc2c(=O)c(-c3nc4ccccc4[nH]3)coc2cc1OC(=O)N1CCOCC1 )
-3e-05 (inactive)

# lookup: NADPH fluorescence slope of Nc1nc(NC(=O)c2cccs2)nn1-c1ccccc1
-6.6e-05 (inactive)

Value lookup for NADPH fluorescence slope; key = Clc1ccc(-n2ncc3c(NCCCn4ccnc4)ncnc32)cc1
-5.7e-05 (inactive)

Which NADPH fluorescence slope reading was recorded for the compound CC(=O)c1ccc(O)c(CO)c1 ?
-1.1e-05 (inactive)

Query: NADPH fluorescence slope; subject: CCCc1[nH]n(-c2nc3ccccc3s2)c(=O)c1C=NCCN1CCOCC1
-4e-05 (inactive)

Any idea what its NADPH fluorescence slope is? The compound is O=C(CSc1nnc(-c2ccco2)c(-c2ccco2)n1)Nc1ccccc1
-1.6e-05 (inactive)
